Please provide measured pIC50 for the entries that follow.
# Tgt: Human TK-1 (Homo sapiens, UniProt P04183)
# Sequence (P04183 1-234): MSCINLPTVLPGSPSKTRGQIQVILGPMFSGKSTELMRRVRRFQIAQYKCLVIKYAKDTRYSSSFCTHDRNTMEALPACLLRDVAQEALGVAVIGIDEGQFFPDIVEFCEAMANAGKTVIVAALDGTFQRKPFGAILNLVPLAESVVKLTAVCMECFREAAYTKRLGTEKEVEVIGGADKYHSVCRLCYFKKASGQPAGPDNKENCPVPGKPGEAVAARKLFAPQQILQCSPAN
pIC50: −log10 of the molar value.

Give the measured pIC50 of Nc1nc2c(ncn2[C@H]2CC[C@@H](CO)[C@@H]3C[C@@H]32)c(=O)[nH]1 . < 3.14

Give the measured pIC50 of Nc1ccn(C2CCC(CO)C3CC32)c(=O)n1 (centres unmarked) . < 3.37

Give the measured pIC50 of O=c1ccn([C@H]2CC[C@@H](CO)[C@@H]3C[C@@H]32)c(=O)[nH]1 . < 3.07

Give the measured pIC50 of Nc1ncnc2c1ncn2[C@H]1CC[C@@H](CO)[C@@H]2C[C@@H]21 . < 3.11

Give the measured pIC50 of Cc1cn([C@H]2CC[C@@H](CO)[C@@H]3C[C@@H]32)c(=O)[nH]c1=O . < 3.10

* * *

# System: human embryonic lung (HEL) fibroblasts
# Test name: Cytotoxicity in HEL cell cultures (alteration of cell morphology)
# Reported conditions: microscopically detectable alteration of normal cell morphology
Please provide measured Cytotoxicity, minimum cytotoxic concentration for the entries that follow.

Identify the measured Cytotoxicity, minimum cytotoxic concentration of O=c1[nH]c(=O)n([C@H]2C[C@H](O)[C@@H](CO)O2)cc1/C=C/Br for human embryonic lung (HEL) fibroblasts. > 250 µM

Identify the measured Cytotoxicity, minimum cytotoxic concentration of Nc1nc2c(ncn2COCCO)c(=O)[nH]1 for human embryonic lung (HEL) fibroblasts. > 250 µM

Identify the measured Cytotoxicity, minimum cytotoxic concentration of Nc1ccn(C[C@@H](CO)OCP(=O)(O)O)c(=O)n1 for human embryonic lung (HEL) fibroblasts. > 250 µM

Identify the measured Cytotoxicity, minimum cytotoxic concentration of Nc1nc(O)c2ncn(COC(CO)CO)c2n1 for human embryonic lung (HEL) fibroblasts. > 100 µM

Identify the measured Cytotoxicity, minimum cytotoxic concentration of Nc1ccn(C2CCC(CO)C3CC32)c(=O)n1 (centres unmarked) for human embryonic lung (HEL) fibroblasts. > 100 µM

* * *

Recorded below: pIC50, system HSV-1 TK (Human herpesvirus 1, UniProt P0DTH5).
For clarity, pIC50 is expressed as the negative log10 of concentration in mol/L.

Give the measured pIC50 of Nc1ncnc2c1ncn2[C@H]1CC[C@@H](CO)[C@@H]2C[C@@H]21 . 3.24

Give the measured pIC50 of Cc1cn([C@H]2CC[C@@H](CO)[C@@H]3C[C@@H]32)c(=O)[nH]c1=O . 3.68

Give the measured pIC50 of Nc1nc2c(ncn2[C@H]2CC[C@@H](CO)[C@@H]3C[C@@H]32)c(=O)[nH]1 . 5.24
